Items are presented alongside their recorded melting point.
Structures can show the parent of a compound that is named as a salt.

Some solved entries appear below for comparison.
>  <compound>
CNCC1COc2cccc(-c3ccccc3C(F)(F)F)c2O1 (centres unmarked) (as salt: fumarate)

>  <melting point>
184 to 185 °C

$$$$
>  <compound>
NC[C@H]1COc2cc(Cl)cc(-c3ccccc3F)c2O1 (as salt: hydrochloride)

>  <melting point>
176 to 178 °C

$$$$
>  <compound>
CC(C)NCC1COc2cccc(-c3ccc(Cl)cc3Cl)c2O1 (centres unmarked) (as salt: fumarate)

>  <melting point>
222 to 223 °C

$$$$
>  <compound>
COc1ccc(Cl)cc1-c1cccc2c1OC(CN)CO2 (centres unmarked) (as salt: fumarate)

>  <melting point>
192 to 193 °C

$$$$
>  <compound>
C[C@]1(CN)COc2cccc(-c3ccccc3Cl)c2O1 (as salt: fumarate)

>  <melting point>
149 to 152 °C

$$$$
>  <compound>
NC[C@H]1COc2cc(Cl)cc(-c3ccccc3C(F)(F)F)c2O1 (as salt: hydrochloride)

>  <melting point>
231 to 233 °C

$$$$

IN: Quick one: give measured melting point for NCC1Oc2cc(F)cc(-c3ccccc3C(F)(F)F)c2O1 (centres unmarked) (as salt: hydrochloride)
OUT: 178 to 180 °C

IN: Quick one: give measured melting point for CC(C)NCC1COc2cccc(-c3ccccc3Cl)c2O1 (centres unmarked) (as salt: fumarate)
OUT: 199 to 200 °C

IN: Quick one: give measured melting point for NCC1Oc2cc(Cl)cc(-c3ccc(Cl)cc3Cl)c2O1 (centres unmarked) (as salt: hydrochloride)
OUT: > 250 °C

IN: Quick one: give measured melting point for CNCC1COc2cccc(-c3cc(C)ccc3C)c2O1 (centres unmarked) (as salt: fumarate)
OUT: 174 to 175 °C

IN: Quick one: give measured melting point for NC[C@H]1COc2cc(Cl)cc(-c3ccccc3Cl)c2O1 (as salt: hydrochloride)
OUT: 228 to 230 °C

IN: Quick one: give measured melting point for NCC1Oc2cc(F)cc(-c3ccccc3F)c2O1 (centres unmarked) (as salt: hydrochloride)
OUT: 234 to 235 °C

IN: Quick one: give measured melting point for Cc1cccc(C)c1-c1cc(Cl)cc2c1O[C@@H](CN)CO2 (as salt: hydrochloride)
OUT: 220 to 222 °C

IN: Quick one: give measured melting point for NC[C@H]1COc2ccc(Cl)c(-c3ccccc3Cl)c2O1 (as salt: hydrochloride)
OUT: 105 °C

IN: Quick one: give measured melting point for NCC1COc2cccc(-c3cccc(Cl)c3Cl)c2O1 (centres unmarked) (as salt: fumarate)
OUT: 211 to 212 °C

IN: Quick one: give measured melting point for COc1cccc(-c2cc(Cl)cc3c2O[C@@H](CN)CO3)c1OC (as salt: hydrochloride)
OUT: 197 to 199 °C

IN: Quick one: give measured melting point for C[C@]1(CN)COc2cccc(-c3cccc(Cl)c3)c2O1 (as salt: fumarate)
OUT: 110 to 113 °C

IN: Quick one: give measured melting point for COc1ccccc1-c1cc(Cl)cc2c1O[C@@H](CN)CO2 (as salt: hydrochloride)
OUT: 188 to 189 °C

IN: Quick one: give measured melting point for CNCC1COc2cccc(-c3ccccc3C)c2O1 (centres unmarked) (as salt: fumarate)
OUT: 177 to 178 °C

IN: Quick one: give measured melting point for CCCNCC1COc2cccc(-c3ccc(Cl)cc3Cl)c2O1 (centres unmarked) (as salt: fumarate)
OUT: 178 to 179 °C

IN: Quick one: give measured melting point for C[C@]1(CN)COc2cccc(-c3ccc(Cl)cc3)c2O1 (as salt: fumarate)
OUT: 155 to 158 °C

IN: Quick one: give measured melting point for Clc1ccccc1-c1cccc2c1OC(CNC1CC1)CO2 (centres unmarked) (as salt: fumarate)
OUT: 148 to 149 °C

IN: Quick one: give measured melting point for Cc1ccc(C)c(-c2cccc3c2OC(CN)CO3)c1 (centres unmarked) (as salt: fumarate)
OUT: 199 to 200 °C
